- Test system: Wolbachia pipientis
- assay comment: Anti-Wolbachia Cell-Based Screen
- Type: functional
- Design: scale not given: in the data most compounds retested in dose-response had high values
- assay conditions: 5 µM
Hit rate of the full screen: of about 48,000 compounds, about 13,000 (27%) showed an effect of 50% or more. This is one part of the list.
property label: Percent Effect (%)
Give the quantity in %, number only.

The recorded Percent Effect for entry NC(=O)c1cccc(C(=O)N2CCCC(n3ccnc3)C2)c1 (stereo not drawn) equals 111.9

In plain terms, CSCCC(CO)NC(=O)c1sc(-c2ccccc2Cl)nc1C (stereo not drawn) has a documented Percent Effect of 13.6

For this molecule ( O=C(c1cnc(-c2cccs2)s1)N1CCCC(n2ccnc2)C1 (stereo not drawn) ), measured Percent Effect is 98.86

Quick note, Percent Effect for CCN(CC)S(=O)(=O)N1CCCC1CC(=O)c1cccs1 (stereo not drawn) landed at 1.947

Value of measured Percent Effect for the entry CCC(NC(=O)C1CCN(S(C)(=O)=O)CC1)c1ccc(OC)c(C)c1 (stereo not drawn) : -3.123

Value of Percent Effect reported for the molecule "CCc1ncnc2c1CCN(Cc1ccc(OC)cc1)CC2.O=C(O)C(F)(F)F" is -14.19

Measured Percent Effect, "CCc1ncnc2c1CCN(CCOC)CC2.O=C(O)C(F)(F)F" : 104.9

Value of Percent Effect reported for the molecule "Cc1ccc(C(=O)NCCC(C)C)cc1NS(C)(=O)=O" is -0.7863

Input CS(=O)(=O)N1CCC(C(=O)NC(Cc2ccsc2)c2cccnc2)CC1 (stereo not drawn) . Output Percent Effect: 127.1

So for CCC(NC(=O)C1CCN(S(C)(=O)=O)CC1)c1ccc(OC)c(OC)c1 (stereo not drawn) , the logged Percent Effect turned out to be -10.24

Value of measured Percent Effect for the entry O=C1CSc2ccc(C(=O)N3CCCC(n4ccnc4)C3)cc2N1 (stereo not drawn) : 1.64

get_value(item= "COC[C@@]12CCO[C@@H]1CCN(C(=O)Cc1ccccc1F)C2" , readout=Percent Effect) returns 7.252

// CCN(CC)S(=O)(=O)N1CCCC1c1nnc2n1CCN(C)CC2 (stereo not drawn) : Percent Effect value = 109.2

Notebook: "CC(C)CCNC(=O)c1ccc(Cl)c(NS(C)(=O)=O)c1" , Percent Effect read as 2.284

// sample CCC(NC(=O)NC1CCN(S(C)(=O)=O)CC1)c1cccs1 (stereo not drawn) , its Percent Effect was 5.409

Percent Effect for "C[C@@H](CO)NC(=O)c1ccc2nc(NS(C)(=O)=O)sc2c1" is 93.82

Please fill in: Percent Effect reported for COc1cccc(-c2nc(C)c(C(=O)NC(CO)CCSC)s2)c1 (stereo not drawn) = -11.86

The molecule listed as CS(=O)(=O)N1CCC(C(=O)NC(Cc2ccsc2)c2ccccn2)CC1 (stereo not drawn) shows Percent Effect equal to -12.55
